- assayed target: Chitinase (Onchocerca volvulus, UniProt Q25615)
- Sequence (Q25615 whole entry): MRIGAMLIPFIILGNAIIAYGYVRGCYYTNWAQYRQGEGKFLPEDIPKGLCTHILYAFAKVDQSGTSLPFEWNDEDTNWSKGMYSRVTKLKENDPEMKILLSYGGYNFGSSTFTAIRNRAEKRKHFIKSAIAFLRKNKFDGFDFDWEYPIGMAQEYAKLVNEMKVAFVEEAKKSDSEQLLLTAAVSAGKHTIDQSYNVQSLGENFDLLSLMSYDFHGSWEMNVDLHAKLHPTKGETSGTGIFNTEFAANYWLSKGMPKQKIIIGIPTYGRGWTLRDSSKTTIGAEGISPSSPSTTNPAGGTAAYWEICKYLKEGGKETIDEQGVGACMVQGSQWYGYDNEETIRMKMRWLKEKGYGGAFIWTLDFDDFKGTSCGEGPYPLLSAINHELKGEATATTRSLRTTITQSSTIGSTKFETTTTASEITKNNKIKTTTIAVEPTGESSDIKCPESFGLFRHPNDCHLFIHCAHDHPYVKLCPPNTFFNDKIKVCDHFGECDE
measurement type: log10(IC50) (log10 of the value in µM)
Could you please treat all values as log10 of IC50 in µM?

Examples with answers:
1) O=C(Nc1ccc(F)cc1)c1cc(I)cc(I)c1O = -0.06
2) Cc1cc(C(C#N)c2ccc(Cl)cc2)c(Cl)cc1NC(=O)c1cc(I)cc(I)c1O (stereo not given) = 0.20
3) Cc1ccc(NC(=O)c2cc(I)cc(I)c2O)cc1 = 0.23
4) O=C(Nc1ccc(I)cc1)c1cc(I)cc(I)c1O = -0.20
5) COc1ccc(NC(=O)c2cc(I)cc(I)c2O)cc1 = 0.94
6) CC(C)c1ccc(NC(=O)c2cc(I)cc(I)c2O)cc1 = 0.20
7) O=C(Nc1ccc(Br)cc1)c1cc(I)cc(I)c1O = -0.17
8) O=C(Nc1ccc(Cl)cc1)c1cc(Cl)cc(Cl)c1O = 1.09

Consider the molecule shown here: `O=C(Nc1ccc(Cl)cc1)c1cc(I)cc(I)c1O` What is its recorded log10(IC50)?
0.76

Entry `COc1ccc(NC(=O)c2cc(Br)cc(Br)c2O)cc1` please
0.74

Attribution: ChEMBL document CHEMBL1799923
